Sourced from the supplement of paper PMC10567573

Hi there, I'd appreciate the recorded protein stability index for every entry that follows.
TEST_METHOD_NOTES: protein stability index of a GFP-peptide fusion (GPS, HEK-293T) (PSI 1-6); higher = more stable;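 further: 24-mer peptide tiles fused after GFP, lentivirally expressed, FACS-sorted into six equal bins by GFP/DsRed ratio, decoded by Illumina sequencing, PSI is the read-weighted mean bin number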
TEST_CONDITIONS: treatment: DMSO; c terminus: a fixed tail appended
# output: bare number, no unit

Entry LTDDKQVLNTQGQKTSGQHMIQGA [DLC1] has what protein stability index?
5.06

Could you tell me which protein stability index is on file for WTVANMEEIKKLTTDPDLILEVLR [LARP4] ?
2.15

What value of protein stability index has been reported for the following sequence? TKELDQWIEQLNECKQLSESQVKS [PPP2CA]
4.71

So what does the record say about protein stability index for MDLLTQSLGVDTLPPPDPNPPRAE [APBB1IP] ?
4.85

# protein stability index lookup, item MDEAVGDLKQALPCVAESPTVHVE [TRIP13]
5.18

# input sequence: DSAQVARLWGIRKNRPAMNYDKLS [SPDEF] ; wanted: its protein stability index
3.24

Can you share its protein stability index? I mean this sequence: ATPRQVPSLQHLCRMSIRRVMPTQ [WSB1]
3.83

protein stability index for NSMAPHPARDYVVLRTWRTNLPKG [DLC1] ?
2.48
